Molecular target: CK2A1 (CK2α/β) (Homo sapiens)
Sequence (P68400 whole entry, species assumed): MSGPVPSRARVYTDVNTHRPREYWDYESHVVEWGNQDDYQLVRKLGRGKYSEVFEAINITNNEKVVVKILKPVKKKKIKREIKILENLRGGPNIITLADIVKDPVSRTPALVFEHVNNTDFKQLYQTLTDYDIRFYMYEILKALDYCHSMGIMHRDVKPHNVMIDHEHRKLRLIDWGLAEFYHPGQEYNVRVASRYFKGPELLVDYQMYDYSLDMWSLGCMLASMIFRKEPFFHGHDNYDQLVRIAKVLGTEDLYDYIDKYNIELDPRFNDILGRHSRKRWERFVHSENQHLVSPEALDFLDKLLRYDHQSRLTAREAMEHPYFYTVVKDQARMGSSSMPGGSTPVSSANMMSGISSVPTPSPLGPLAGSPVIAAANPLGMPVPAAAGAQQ
Sequence (P67870 whole entry partner, species assumed): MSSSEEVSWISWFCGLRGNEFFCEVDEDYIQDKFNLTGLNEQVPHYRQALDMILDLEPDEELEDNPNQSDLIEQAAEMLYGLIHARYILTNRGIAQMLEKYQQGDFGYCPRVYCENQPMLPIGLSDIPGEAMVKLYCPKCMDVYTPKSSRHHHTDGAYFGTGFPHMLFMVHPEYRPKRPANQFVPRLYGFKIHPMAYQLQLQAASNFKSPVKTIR
Experiment: CK2 kinase assay, CK2A1 (CK2α/β)
Format: biochemical
Conditions: Table A; read-out: CK2A1 (CK2α/β) (IC50)
Kindly state IC50 for each of the entries shown.
// note: answer is a bare numeric in nM

Task: Sample N#Cc1cc(Nc2nc(NC3CC3)c3ncc(C#N)n3n2)c(Cl)c(N2CCN(C(=O)CN3CCC3)CC2)c1 — what was its IC50?
Result: 1.54

Task: Repeat for the following compound: COC(=O)NC1CCN(c2cc(C#N)cc(Nc3nc(NC4CC4)c4ncc(C#N)n4n3)c2Cl)CC1
Result: 1.19

Task: # iterate: N#Cc1cc(CNC2COC2)c(Cl)c(Nc2nc(NC3CC3)c3ncc(C#N)n3n2)c1
Result: 1.07

Task: How about CCN1CC2(CCN(c3cc(C#N)cc(Nc4nc(NC5CC5)c5ncc(C#N)n5n4)c3Cl)CC2)C1 ?
Result: 2.16

Task: And then COC(=O)N[C@H]1CCN(c2cc(C#N)cc(Nc3nc(NC4CC4)c4ncc(C#N)n4n3)c2Cl)C[C@H]1NC1COC1 (single isomer, unassigned) , what is it?
Result: 1.24

Task: What about this compound? CN1CCOC(c2cc(C#N)cc(Nc3nc(NC4CC4)c4ncc(C#N)n4n3)c2Cl)C1 (racemic)
Result: 1.48

Task: Entry N#Cc1cc(Nc2nc(NC3CC3)c3ncc(C#N)n3n2)c(Cl)c(N2CCN(C(=O)CCO)CC2)c1 please
Result: 0.53

Task: Also COC(=O)N[C@@H]1C[C@@H]2CN(c3cc(C#N)cc(Nc4nc(NC5CC5)c5ncc(C#N)n5n4)c3Cl)C[C@@H]2C1 ?
Result: 1.7

Task: Subsequent entry: N#Cc1cc(Nc2nc(NC3CC3)c3ncc(C#N)n3n2)c(Cl)c(C2CCN(C3CN(CC4CC4)C3)CC2)c1
Result: 0.59

Task: Another compound: N#Cc1cc(Nc2nc(NC3CC3)c3ncc(C#N)n3n2)c(Cl)c(C2(F)COC2)c1
Result: 0.35

Task: Subsequent entry: N#Cc1cc(Nc2nc(NC3CC3)c3ncc(C#N)n3n2)c(Cl)c(N2CCN(C(=O)C3CCCO3)CC2)c1 (racemic)
Result: 0.5

Task: Same again, this time with N#Cc1cc(Nc2nc(NC3CC3)c3ncc(C#N)n3n2)c(Cl)c(N2CCN(C3CNC3)CC2)c1
Result: 0.43

Task: // repeat for CCNc1nc(Nc2cc(C#N)cc(N3CCN([C@H]4C[C@H](O)C4)CC3)c2Cl)nn2c(C#N)cnc12 and report
Result: 1.62

Task: Okay, and N#Cc1cnc2c(NC3CC3)nc(Nc3cc(C(F)F)cc(N4CCN(C5CCOCC5)CC4)c3Cl)nn12 ?
Result: 1.74

Task: Please answer likewise for N#Cc1cc(Nc2nc(NC3CC3)c3ncc(C#N)n3n2)c(Cl)c(N2CCC3CCN(CC(O)CF)C3C2)c1 (racemic)
Result: 1.27
